test: in vivo; settings: male, rat, in vivo
Observable: concentration at 8 h (µM)
Just the number in µM, nothing appended.

concentration at 8 h for CC(C)Cc1ccc(C(C)C(=O)O)cc1 (stereo not shown) [ibuprofen, 2-(ρ-isobutylphenyl)propionic acid, reference compound] ? 313

----------
Would you kindly list Life Elongation Rate for each of these compounds?
test system: human myeloma cell line implanted into mice; assay: Survival of mice with multiple myeloma (Example 110, Study B); assay type: in vivo; conditions: 3 mg/kg per day, orally, n=5

Life Elongation Rate for N[C@@H](Cc1ccc(N(CCCl)CCCl)cc1)C(=O)O [melphalan, reference compound] ? 155%

Also, O=C(O)CCCc1ccc(N(CCCl)CCCl)cc1 [chlorambucil, reference compound] please. 151%

Also, `Br.CCN(CC)CCOC(=O)[C@H](Cc1ccc(N(CCCl)CCCl)cc1)NC(C)=O` please. 187%

Also, `Br.CCN(CC)CCOC(=O)CCCc1ccc(N(CCCl)CCCl)cc1` please. 194%

Values were extracted from patent US11541029B2.
